Reported AUC(0-inf) values follow for various compounds
Experiment: Pharmacokinetic study in SD rats (intravenous injection and intragastric administration)
Type: in vivo, Sprague Dawley (SD) rats
Conditions: male, Sprague-Dawley, rat, plasma, Oral (10 mg/kg), read-out: area under curve AUC0-∞

# compound, AUC(0-inf)
rows = [
    ("COc1ccc2c(c1OCc1ccccc1)CC(C(=O)NS(=O)(=O)N(C)C)N(c1nc3ccccc3o1)C2 (centres unmarked)", "18100 ng·h/mL"),
    ("COc1ccc(COc2c(OC)ccc3c2C[C@@H](C(=O)O)N(c2nc4ccc(F)cc4o2)C3)cc1", "7130 ng·h/mL"),
    ("COc1ccc(COc2c(OC)ccc3c2C[C@@H](C(=O)O)N(c2nc4ccc(F)cc4o2)C3)cn1", "15300 ng·h/mL"),
    ("COc1ccc2c(c1OCc1ccccc1)C[C@@H](C(=O)O)N(c1nc3ccc(C#N)cc3o1)C2", "45400 ng·h/mL"),
    ("COc1ccc(COc2c(OC)ccc3c2C[C@@H](C(=O)O)N(c2nc4ccc(F)cc4o2)C3)nc1", "24700 ng·h/mL"),
    ("COc1ccc2c(c1OCc1ccccc1)C[C@@H](C(=O)O)N(c1nc3ccncc3o1)C2", "35700 ng·h/mL"),
    ("COc1ccc2c(c1OCc1ccccc1)C[C@@H](C(=O)O)N(c1nc3ccc(F)cc3o1)C2", "29600 ng·h/mL"),
    ("COc1ccc2c(c1OCc1ccccc1)C[C@@H](C(=O)O)N(C(=O)C(c1ccccc1)c1ccccc1)C2 [olodanrigan, reference compound]", "1480 ng·h/mL"),
]
